Form: system (UniProt:Q9Y233), quantity (IC50), values below.
Sequence (Q9Y233 716-1055): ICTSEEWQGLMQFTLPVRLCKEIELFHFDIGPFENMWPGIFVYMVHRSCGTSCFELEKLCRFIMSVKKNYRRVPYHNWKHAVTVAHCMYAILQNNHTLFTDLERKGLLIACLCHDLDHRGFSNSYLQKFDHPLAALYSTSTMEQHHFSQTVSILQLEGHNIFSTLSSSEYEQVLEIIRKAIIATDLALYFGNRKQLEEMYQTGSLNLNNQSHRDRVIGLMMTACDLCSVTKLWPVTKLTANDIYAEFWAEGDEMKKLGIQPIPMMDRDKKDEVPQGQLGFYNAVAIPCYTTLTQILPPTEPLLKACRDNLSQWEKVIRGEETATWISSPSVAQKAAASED
Numbers only, in nM.

Query: Item under review: COc1cccn2nc(/C=C/c3nc(-c4ccc(C)o4)cn3C)nc12 . Reported IC50?
Reply: 140

Further cases:
Query: Item under review: Cc1cccn2nc(CCc3nc(-c4cccnc4)cn3C)nc12 . Reported IC50?
Reply: 75
